Taken from PubChem BioAssay (NCATS).

# System: HEK293
# assayNotes: Cytotoxic Profiling of Annotated Libraries Using Quantitative High-Throughput Screening (AID 1296008); note: % is set by controls: 0 for no effect and ±100 for the full control effect
# conditionNotes: Five cell lines viability, CellTiter-Glo ATP luminescence, 48-72 h; stronger effect = lower value
Results filed as inconclusive are left out.

[
  {
    "compound": "COc1cc(O)c([C@@H](CC(=O)N2CC(C)CC(C)C2)c2ccc3c(c2)OCO3)c(OC)c1 (stereo partly specified)",
    "max response / %": -5.89
  },
  {
    "compound": "CC1(C)CC[C@]2(C(=O)O[C@@H]3O[C@H](CO)[C@@H](O)[C@H](O)[C@H]3O)CC[C@]3(C)C(=CCC4[C@@]5(C)CC[C@H](O[C@@H]6O[C@H](C(=O)O)[C@@H](O)[C@H](O)[C@H]6O)[C@@](C)(CO)C5CC[C@]43C)C2C1 (stereo partly specified)",
    "max response / %": -6.82
  },
  {
    "compound": "C/C=C1\\[C@H](OC2OC(COC3OC(CO)C(O)C(O)C3O)C(O)C(O)C2O)OC=C(C(=O)OC)[C@H]1CC(=O)OCCc1ccc(O)cc1 (stereo partly specified)",
    "max response / %": -70.9
  },
  {
    "compound": "CC(NC(=O)CCc1nc2ccccc2c(=O)[nH]1)c1ccccc1 (stereo unspecified)",
    "max response / %": -0.47
  },
  {
    "compound": "CC(=O)OC1CC2(C)C3=CCC4(C)C5C(O)C(O)C(C(C)C)C5(C)CCC4(C)C3CCC2C(C)(C)C1OC1OC(CO)C(O)C(O)C1O (stereo unspecified)",
    "max response / %": -1.39
  },
  {
    "compound": "C[C@H](NC(c1cccc2[nH]c(=O)c(=O)[nH]c12)P(=O)(O)O)c1ccc(Br)cc1 (stereo partly specified)",
    "max response / %": 1.8
  },
  {
    "compound": "COc1ccc(C2(O)c3ccccc3NC(=O)C2O)cc1 (stereo unspecified)",
    "max response / %": -5.12
  },
  {
    "compound": "CC1(C)CC[C@]2(C(=O)O[C@@H]3O[C@H](CO)[C@@H](O)[C@H](O)[C@H]3O)CC[C@]3(C)C(=CCC4[C@@]5(C)C[C@@H](O)[C@H](O)C(C)(C)C5CC[C@]43C)C2[C@@H]1O (stereo partly specified)",
    "max response / %": 0.957
  },
  {
    "compound": "C[S+](CC[C@H](N)C(=O)[O-])C[C@H]1O[C@@H](n2cnc3c(N)ncnc32)[C@H](O)[C@@H]1O (stereo partly specified)",
    "max response / %": 3.53
  },
  {
    "compound": "COC(=O)Cc1cc2c(c([N+](=O)[O-])c1)N(C(=O)CC[C@H](N)C(=O)O)CC2",
    "max response / %": -4.25
  },
  {
    "compound": "CC1CCC2(OC1)OC1CC3C4CC=C5CC(O)CC(O[C@@H]6OC[C@@H](O)[C@H](O)[C@H]6O)C5(C)C4CCC3(C)C1(O)C2C (stereo partly specified)",
    "max response / %": 3.32
  },
  {
    "compound": "CC(=O)OCC1(O)CCC2C(COC3OC(CO)C(O)C(O)C3OC(=O)/C=C/c3ccc(O)cc3)=COC(OC(=O)CC(C)C)C21 (stereo unspecified)",
    "max response / %": -11
  },
  {
    "compound": "C[C@@H]1O[C@@H](O[C@H]2[C@@H]3C=CO[C@@H](O[C@@H]4O[C@H](CO)[C@@H](O)[C@H](O)[C@H]4O)[C@@H]3[C@@]3(CO)O[C@@H]23)[C@H](OC(=O)/C=C/c2ccc(O)c(O)c2)[C@H](O)[C@H]1O",
    "max response / %": -5.61
  },
  {
    "compound": "CC1(c2nc3c(C(N)=O)cccc3[nH]2)CCCN1 (stereo unspecified)",
    "max response / %": -22.9
  },
  {
    "compound": "CC1(C)CC[C@]2(C(=O)O)CC[C@]3(C)C(=CCC4[C@@]5(C)CC[C@H](O[C@@H]6O[C@H](C(=O)O)[C@@H](O[C@@H]7OC[C@@H](O)[C@H](O)[C@H]7O)[C@H](O)[C@H]6O)C(C)(C)C5CC[C@]43C)C2C1O (stereo partly specified)",
    "max response / %": 2.41
  },
  {
    "compound": "Cn1c(=O)cc(N2CCCC(N)C2)n(Cc2cc(F)ccc2C#N)c1=O (stereo unspecified)",
    "max response / %": -7.1
  },
  {
    "compound": "C=CC(C)(C)c1[nH]c2ccccc2c1C[C@@H]1NC(=O)[C@H](Cc2c[nH]c3ccccc23)NC1=O",
    "max response / %": -1.95
  },
  {
    "compound": "O=C(O)[C@@H]1C[C@H]2C[C@@H](CCc3nn[nH]n3)CC[C@H]2CN1",
    "max response / %": 1.79
  },
  {
    "compound": "Cc1ccc(NC(=O)C(=O)NC2CC(C)(C)NC(C)(C)C2)cc1",
    "max response / %": 1.35
  },
  {
    "compound": "C=C1CC2C(C)(CCC(=O)O)C(C(C)(C)O)CCC2(C)C2C(=O)OC(C)(C(=O)OC)C(=O)C12C (stereo unspecified)",
    "max response / %": 3.75
  },
  {
    "compound": "CC(C)=CCC[C@](C)(O[C@@H]1O[C@H](CO[C@@H]2O[C@H](CO)[C@@H](O)[C@H](O)[C@H]2O)[C@@H](O)[C@H](O)[C@H]1O)C1CC[C@]2(C)[C@@H]1[C@H](O)CC1[C@@]3(C)CC[C@H](O[C@@H]4O[C@H](CO)[C@@H](O)[C@H](O)[C@H]4O[C@@H]4O[C@H](CO)[C@@H](O)[C@H](O)[C@H]4O)C(C)(C)[C@@H]3CC[C@]12C (stereo partly specified)",
    "max response / %": 0.0713
  },
  {
    "compound": "CC1(O)CC(O)C2(O)C=COC(O[C@@H]3O[C@H](CO)[C@@H](O)[C@H](O)[C@H]3O)C12 (stereo partly specified)",
    "max response / %": 4.59
  },
  {
    "compound": "CC1OC(OC2C(C)OC(OC3C(OC(=O)C45CCC(C)(C)CC4C4=CCC6C7(C)CCC(OC8OC(C(=O)O)C(O)C(O)C8OC8OC(CO)C(O)C(OC9OC(C)C(O)C(O)C9O)C8O)C(C)(CO)C7CCC6(C)C4(C)CC5)OC(CO)C(O)C3O)C(O)C2O)C(O)C(O)C1O (stereo unspecified)",
    "max response / %": 1.99
  },
  {
    "compound": "CC(C)S(=O)(=O)NC[C@H](C)c1ccc(NC(=O)c2cc(F)cc(F)c2)cc1",
    "max response / %": -6.11
  },
  {
    "compound": "CC1(C)CC2C(O)c3cocc3CC(C)(O)C2C1 (stereo unspecified)",
    "max response / %": 3.14
  },
  {
    "compound": "C[C@@H]1O[C@@H](O[C@H]2[C@H](O[C@H]3[C@H](O[C@H]4CC[C@@]5(C)C(CC[C@]6(C)C5CC=C5[C@@H]7CC(C)(C)C[C@@H](O)[C@]7(C)CC[C@]56C)[C@@]4(C)CO)O[C@H](C(=O)O)[C@@H](O)[C@@H]3O)OC[C@H](O)[C@@H]2O)[C@H](O)[C@H](O)[C@H]1O (stereo partly specified)",
    "max response / %": -4.78
  }
]
